Test system: GABAA receptor complex (TBPS binding)
Measurement Notes: TBPS Binding Assay
Set-up: species or system Wistar rats
Conditions: [35S]TBPS 0.4 nM, GABA 1 μM, rat cerebral cortex membrane, +% inverse agonistic, 0% antagonistic
A collection of compounds and their measured TBPS binding Variation Rate
Give a bare numeral; the unit % is implied.

Record excerpt, results attached:
Cc1nc(-c2cc3c(CC(C)C)nccc3[nH]c2=O)no1
12
Cc1nc(-c2cc3c(-c4ccccc4Cl)nccc3[nH]c2=O)no1
41
Cc1nc(-c2cc3c(C)nccc3[nH]c2=O)no1
53
O=c1[nH]c2ccnc(-c3ccc(Cl)cc3)c2cc1-c1nc(C2CC2)no1
-14
CC(C)c1noc(-c2cc3c(-c4ccco4)nccc3[nH]c2=O)n1
10
Cc1nc(-c2cc3c(-c4cccc(F)c4)nccc3[nH]c2=O)no1
21

Task item: Could you tell me which TBPS binding Variation Rate is on file for Cc1noc(-c2cc3c(-c4ccccc4Cl)nccc3[nH]c2=O)n1 ?
Reply: 37

Task item: Could you tell me which TBPS binding Variation Rate is on file for Cc1noc(-c2cc3c(-c4ccc(Cl)cc4)nccc3[nH]c2=O)n1 ?
Reply: 13

Task item: Could you tell me which TBPS binding Variation Rate is on file for COc1ccc(-c2nccc3[nH]c(=O)c(-c4nc(C)no4)cc23)cc1 ?
Reply: 27

Task item: Could you tell me which TBPS binding Variation Rate is on file for CCCc1nc(-c2cc3c(-c4ccccc4)nccc3[nH]c2=O)no1 ?
Reply: 25

Task item: Could you tell me which TBPS binding Variation Rate is on file for Cc1nc(-c2cc3c(-c4ccncc4)nccc3[nH]c2=O)no1 ?
Reply: 34

---

Assay Target: benzodiazepine receptor
Measurement Notes: Benzodiazepine Receptor Binding Assay
Conditions: read-out: BZP-receptor Binding IC50; [3H]-diazepam 1.5 nM; rat brain crude synaptosome membrane; 0° C., 20 min
A collection of molecules and their measured pIC50
pIC50 is defined as minus the log10 of a concentration measured in mol/L.

Cc1ccccc1-c1nccc2[nH]c(=O)c(-c3nc(C4CC4)no3)cc12 [Example 242]
8.73
O=c1[nH]c2ccnc(-c3ccsc3)c2cc1-c1nc(C2CC2)no1 [Example 247]
8.86
Cc1noc(-c2cc3c(-c4cccc(Cl)c4)nccc3[nH]c2=O)n1 [Example 180]
8.91

Task item: Could you tell me which pIC50 is on file for Cc1noc(-c2cc3c(-c4ccccc4)nccc3[nH]c2=O)n1 [Example 175] ?
Reply: 8.92

---

Assay Target: benzodiazepine receptor
Measurement Notes: Benzodiazepine Receptor Binding Assay
Conditions: read-out: BZP-receptor Binding IC50; [3H]-diazepam 1.5 nM; rat brain crude synaptosome membrane; 0° C., 20 min
Property Measured: pIC50
pIC50 is defined as minus the log10 of a concentration measured in mol/L.

CCc1nc(-c2cc3c(-c4ccccc4OC)nccc3[nH]c2=O)no1
8.07
O=c1[nH]c2ccnc(-c3cccc(Cl)c3)c2cc1-c1noc(C2CC2)n1
8.78
CCc1noc(-c2cc3c(-c4ccsc4)nccc3[nH]c2=O)n1
8.90
O=c1[nH]c2ccnc(-c3cccs3)c2cc1-c1nc(C2CC2)no1
8.84
O=c1[nH]c2ccnc(-c3ccc(F)cc3)c2cc1-c1nc(C2CC2)no1
8.86

Query molecule follows.
Task item: Could you tell me which pIC50 is on file for CC(C)c1nc(-c2cc3c(-c4ccccc4)nccc3[nH]c2=O)no1 ?
Reply: 9.02

---

Assay Target: benzodiazepine receptor
Measurement Notes: Benzodiazepine Receptor Binding Assay
Conditions: read-out: BZP-receptor Binding IC50; [3H]-diazepam 1.5 nM; rat brain crude synaptosome membrane; 0° C., 20 min
Property Measured: IC50 (nM)
Give a bare numeral; the unit nM is implied.

Record excerpt, results attached:
Cc1nc(-c2cc3c(-c4ccc(F)cc4)nccc3[nH]c2=O)no1 [Example 6]
2.98
CCc1nc(-c2cc3c(-c4cccnc4)nccc3[nH]c2=O)no1 [Example 106]
1.96
CCc1noc(-c2cc3c(-c4ccccc4OC)nccc3[nH]c2=O)n1 [Example 208]
4.14
Cc1nc(-c2cc3c(-c4ccncc4)nccc3[nH]c2=O)no1 [Example 94]
4.49

Task item: Could you tell me which IC50 is on file for CCCc1nccc2[nH]c(=O)c(-c3noc(C4CC4)n3)cc12 [Example 49] ?
Reply: 1.11

Task item: Could you tell me which IC50 is on file for O=c1[nH]c2ccnc(-c3ccccc3F)c2cc1-c1noc(C2CC2)n1 [Example 116] ?
Reply: 1.17

Task item: Could you tell me which IC50 is on file for CCCc1nc(-c2cc3c(C4CC4)nccc3[nH]c2=O)no1 [Example 37] ?
Reply: 3.91

Task item: Could you tell me which IC50 is on file for CCc1noc(-c2cc3c(-c4ccccc4)nccc3[nH]c2=O)n1 [Example 198] ?
Reply: 1.03

Task item: Could you tell me which IC50 is on file for CCc1nc(-c2cc3c(C4CCC4)nccc3[nH]c2=O)no1 [Example 21] ?
Reply: 4.21
